B1: TEKT4 (parent)
chain: LREKLLEAEQSLRNLEDIHMSLEK

Variants of: B1
Assay: protein stability index of a GFP-peptide fusion (GPS, HEK-293T) (PSI 1-6); higher = more stable;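 also: lentivirally expressed fusions sorted by FACS into six bins by GFP to DsRed ratio, PSI derived from sequencing read proportions per bin multiplied by bin number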
Conditions: c terminus: a fixed tail appended
assay.metric: protein stability index

[[record]]
changes = "Q10K"
assay_metric = "protein stability index"
endpoint_result = 2.37

[[record]]
changes = "E23A"
assay_metric = "protein stability index"
endpoint_result = 3.45

[[record]]
changes = "I18A"
assay_metric = "protein stability index"
endpoint_result = 2.81

[[record]]
changes = "L12G"
assay_metric = "protein stability index"
endpoint_result = 3.89

[[record]]
changes = "L6A"
assay_metric = "protein stability index"
endpoint_result = 3.11

[[record]]
changes = "L6S"
assay_metric = "protein stability index"
endpoint_result = 4.23

[[record]]
changes = "L12P"
assay_metric = "protein stability index"
endpoint_result = 4.6

[[record]]
changes = "E23D"
assay_metric = "protein stability index"
endpoint_result = 2.27

[[record]]
changes = "E23K"
assay_metric = "protein stability index"
endpoint_result = 2.74

